Target: mam sCRFR2α (mouse soluble CRF receptor type 2α, amino acids 1-143 with a FLAG epitope following amino acid 143, purified from COS M6 cell media) (mouse)
Experiment: radioreceptor assay, displacement of [125I-DTyr0]-astressin from purified sCRFR2α
Where no end group is shown, it is not given here.
For each record, write down the corresponding Ki.
Numbers only, in nM.

# BINDER, Ki [nM]
records = [
    ("DDPPLSIDLTFHLLRTLLELARTQSQRERAEQNRIIFDSV (peptide, UniProt P55090 81-120, looked up) [rUcn1 (urocortin 1)]", 6.6),
]

Hi, could you look up Ki for each item in my list?
1. VILSLDVPIGLLRILLEQARYKAARNQAATNAQILAHV (peptide, UniProt Q99ML8 73-110, looked up) [mUcn2 (urocortin 2)]
2. SEEPPISLDLTFHLLREVLEMARAEQLAQQAHSNRKLMEII (ends and bridges not checked) [corticotropin releasing factor (CRF)]

113
23
